experimental-system: T1, cell-surface CD3 epsilon on primary human T cells (human, UniProt P07766 23-207)
T1 construct: whole, on cells; part of the CD3/TCR complex on the cells
T1 sequence (P07766 23-207): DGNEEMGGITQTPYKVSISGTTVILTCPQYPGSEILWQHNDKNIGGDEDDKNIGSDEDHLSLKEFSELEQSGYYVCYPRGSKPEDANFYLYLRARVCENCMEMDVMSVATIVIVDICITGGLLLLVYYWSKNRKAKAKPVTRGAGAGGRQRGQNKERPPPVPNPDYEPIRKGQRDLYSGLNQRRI
method-description: flow cytometry on primary human T cells, anti-human IgG Alexa Fluor 647; MFI

| binder | binding result |
| --- | --- |
| CD3B143 (antibody, IgG1, V domains shown, IgG1 constant region with L234A, L235A, F405L; human lambda light chain constant region) VH: EVQLVESGGGLVQPGGSLRLSCAASGFTFNTYAMNWVRQAPGKGLEWVARIRSKYNNYATYYAASVKGRFTISRDDSKNSLYLQMNSLKTEDTAVYYCARHGNFGNSYVSWFAYWGQGTLVTVSS VL: QAVVTQEPSLTVSPGGTVTLTCRSSTGAVTTSNYANWVQQKPGQAPRGLIGGTNKRAPGTPARFSGSLLGGKAALTLSGAQPEDEAEYYCALWYSNLWVFGGGTKLTVL | binds |
